Where do these numbers come from? They come from patent US20260317324A1.

DC50 overview
# Assay system: BRAF G466V (Homo sapiens, UniProt P15056, G466V)
# Construct: Horizon Discovery (HCT-116 BRAF−/− cells); host or cells: HCT-116 BRAF−/− cells, clone 8, lentiviral transduction
# Sequence (P15056 whole entry G466V): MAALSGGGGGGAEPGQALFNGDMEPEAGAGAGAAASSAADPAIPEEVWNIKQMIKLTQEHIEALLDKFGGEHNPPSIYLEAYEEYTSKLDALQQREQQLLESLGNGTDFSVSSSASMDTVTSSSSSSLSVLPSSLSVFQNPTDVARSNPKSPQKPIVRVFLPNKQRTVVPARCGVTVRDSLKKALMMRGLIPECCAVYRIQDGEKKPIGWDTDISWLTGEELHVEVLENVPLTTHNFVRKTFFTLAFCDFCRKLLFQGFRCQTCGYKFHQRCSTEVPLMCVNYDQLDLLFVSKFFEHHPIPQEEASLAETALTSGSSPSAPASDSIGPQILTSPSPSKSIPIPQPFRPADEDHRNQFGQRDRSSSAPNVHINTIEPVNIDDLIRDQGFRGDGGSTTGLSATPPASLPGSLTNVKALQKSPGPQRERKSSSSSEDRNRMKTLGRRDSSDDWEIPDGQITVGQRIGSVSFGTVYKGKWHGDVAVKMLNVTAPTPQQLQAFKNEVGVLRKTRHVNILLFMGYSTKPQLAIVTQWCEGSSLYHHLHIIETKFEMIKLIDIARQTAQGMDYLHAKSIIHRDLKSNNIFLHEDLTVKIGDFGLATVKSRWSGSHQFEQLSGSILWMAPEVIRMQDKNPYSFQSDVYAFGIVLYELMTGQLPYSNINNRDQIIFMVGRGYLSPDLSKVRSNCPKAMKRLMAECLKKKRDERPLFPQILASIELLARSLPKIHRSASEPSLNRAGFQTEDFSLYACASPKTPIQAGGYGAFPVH
# Assay text: BRAF HiBiT degradation assay, C-terminal HiBiT-tagged BRAF G466V overexpressed in HCT-116 BRAF−/− cells (clone 8), Nano-Glo HiBiT Lytic assay
# Assay type: cell-based
# Reported conditions: BRAF G466V (Class 3), HCT-116 BRAF−/− cells; DC50 at 50% degradation

Compound: CCC(C)S(=O)(=O)Nc1cc(Cl)cc(-c2cn(-c3ccc(N4CCN(CC5CCN(c6ccc(N7CCC(=O)NC7=O)cc6)CC5)CC4)cc3)nc2-c2ccncc2)c1F (racemic)
DC50: 10 to 50 nM
//
Compound: O=C1CCC(c2ccc(N3CCC(CN4CCN(c5ccc(-n6cc(-c7cc(Cl)cc(NS(=O)(=O)N8CCCC8)c7F)c(-c7ccncc7)n6)cc5)CC4)CC3)cc2F)C(=O)N1 (racemic)
DC50: < 10 nM
//
Compound: CCCS(=O)(=O)Nc1cccc(-c2nc(C3CCC4(CC3)CCN(CC3CCN(c5ccc6c(c5)CN(C5CCC(=O)NC5=O)C6=O)CC3)CC4)sc2-c2ccnc(N)n2)c1F (racemic)
DC50: > 500 nM
//
Compound: CCN(C)S(=O)(=O)Nc1cccc(-c2cn(-c3ccc(N4CCN(CC5CCN(c6ccc([C@@H]7CCC(=O)NC7=O)cn6)CC5)CC4)c(F)c3)nc2-c2ccncc2)c1F
DC50: 50 to 500 nM
//
Compound: O=C1CC[C@@H](c2ccc(N3CCC(CN4CCN(c5ccc(-n6cc(-c7cc(Cl)cc(NS(=O)(=O)N8CCCC8)c7F)c(-c7ccncc7)n6)nc5)CC4)CC3)nc2)C(=O)N1
DC50: < 10 nM
//
Compound: O=C1CCC(c2ccc(N3CCC(CN4CCN(c5ccc(-n6cc(-c7cc(Cl)cc(NS(=O)(=O)N8CC[C@@H](F)C8)c7F)c(-c7ccncc7)n6)nc5)CC4)CC3)nc2)C(=O)N1 (mixture of isomers)
DC50: < 10 nM
//
Compound: CCCS(=O)(=O)Nc1cc(Cl)cc(-c2cn(-c3ccc(N4CCN(CC5CCN(c6ccc(C7CCC(=O)NC7=O)cn6)CC5)[C@@H](C)C4)cc3)nc2-c2ccncc2)c1F (mixture of isomers)
DC50: < 10 nM
//
Compound: O=C1CCC(c2ccc(N3CCC(CN4CCN(c5ccc(-n6cc(-c7cc(F)cc(NS(=O)(=O)N8CCCC8)c7F)c(-c7ccncc7)n6)cc5)CC4)CC3)nc2)C(=O)N1 (racemic)
DC50: < 10 nM
//
Compound: CCCS(=O)(=O)Nc1cc(Cl)cc(-c2cn(-c3ccc(N4CCN(CC5CCN(c6ccc(C7CCC(=O)NC7=O)cn6)CC5)[C@H](C)C4)cc3)nc2-c2ccncc2)c1F (mixture of isomers)
DC50: < 10 nM
//
Compound: CCCS(=O)(=O)Nc1cc(Cl)cc(-c2cn(-c3ccc(N4CCN(CC5CCN(c6ccc([C@H]7CCC(=O)NC7=O)cc6)CC5)[C@H](C)C4)cc3)nc2-c2ccncc2)c1F
DC50: < 10 nM
//
Compound: CCN(C)S(=O)(=O)Nc1cc(Cl)cc(-c2cn(-c3ccc(N4CCN(CC5CCN(c6ccc(C7CCC(=O)NC7=O)cn6)CC5)CC4)cc3)nc2-c2ccncc2)c1F (racemic)
DC50: < 10 nM
//
Compound: O=C1CCC(c2ccc(N3CCC(CN4CCN(c5ccc(-n6cc(-c7cc(C(F)F)cc(NS(=O)(=O)N8CCCC8)c7F)c(-c7ccncc7)n6)cc5)CC4)CC3)nc2)C(=O)N1 (racemic)
DC50: < 10 nM
//
Compound: C[C@@H]1CN(c2ccc(-n3cc(-c4cc(Cl)cc(NS(=O)(=O)N5CCCC5)c4F)c(-c4ccncc4)n3)nc2)CCN1CC1CCN(c2ccc([C@H]3CCC(=O)NC3=O)cc2)CC1
DC50: < 10 nM
//
Compound: CCN(C)S(=O)(=O)Nc1cc(Cl)cc(-c2cn(-c3ccc(N4CCN(CC5CCN(c6ccc(N7CCC(=O)NC7=O)cc6)CC5)CC4)cc3)nc2-c2ccncc2)c1F
DC50: < 10 nM
//
Compound: CCCS(=O)(=O)Nc1cccc(-c2cn(-c3ccc(N4CCC(CN5CCN(c6ccc(C7CCC(=O)NC7=O)cc6)CC5)CC4)cc3)nc2-c2ccncc2)c1F (racemic)
DC50: 10 to 50 nM
